tested on: SNB-19 CNS; test: NCI tumour cell line growth inhibition, 48 h
readout-label: log10(TGI) (log10 of the value in µM)
Give log10 of TGI, with TGI taken in µM.

CCCCC(=C=C1CCCCC1O)C1CCCN1C(=O)OC(C)(C)C (stereo not given) :: 1.49
N#Cc1nnc2c3c(-c4ccc(Cl)cc4)c(C#N)c(=O)[nH]c3nn2c1N :: 1.29
CC(C)[Si]1(C(C)C)OCC2OC(n3cnc4c(N)ncnc43)C(N)C2O[Si](C(C)C)(C(C)C)O1 (stereo not given) :: 1.99
CN(C)CCNC(=O)c1cccc2c(NC(CS)C(=O)O)c3ccccc3nc12 (stereo not given) :: 1.71
CN(C)CCNc1nc2ccccc2c2c1C(=O)c1ccccc1-2 :: 0.73

Incoming: Returns the measured log10(TGI) for the input compound. Input: CCCCCCCCCCCCNC(=O)[C@H]1CSC(c2ccc(OC)c(F)c2)N1 (stereo not given in full)
Outgoing: 0.56

Incoming: Returns the measured log10(TGI) for the input compound. Input: "CC(C)(C)c1ccc(S(=O)(=O)N[C@H]2CC[C@H]3[C@@H]4CCc5cc(O)ccc5[C@H]4CC[C@]23C)cc1"
Outgoing: 1.26

---

test system: ACHN renal; assay: NCI tumour cell line growth inhibition, 48 h
readout-label: GI50

CC(C)(C)c1ccc(S(=O)(=O)N[C@H]2CC[C@H]3[C@@H]4CCc5cc(O)ccc5[C@H]4CC[C@]23C)cc1 :: 2.28 µM
CC1SC2(CCCCC2)N(NC(=O)c2[nH]c3ccc(F)cc3c2-c2ccccc2)C1=O (stereo not drawn) :: > 100 µM

// switching to the query molecule
Incoming: Returns the measured GI50 for the input molecule. Input: "C#Cc1ccc(-n2c(/C=C/c3cc(OC)c(OC)c(OC)c3)nc3ncccc3c2=O)cc1"
Outgoing: 6.63 µM

---

Measured TGI values are reported for all entries that follow.
tested on: SNB-19 CNS; assay: NCI tumour cell line growth inhibition, 48 h

// worked examples, TGI included
CCOc1ccc(NC(=S)/N=C/C(C(=O)Nc2ccccc2C)=C(\C)O)cc1 :: > 100 µM
CC(C)C[C@H](NC(=O)[C@@H](O)[C@H](N)Cc1ccccc1)C(=O)O :: > 100 µM

// switching to the query compound
Incoming: Returns the measured TGI for the input compound. Input: O=C1CC2Sc3ccccc3N=C2N1c1ccc(Cl)cc1Cl (stereo not drawn)
Outgoing: > 100 µM

---

test system: SW-620 colon; assay: NCI tumour cell line growth inhibition, 48 h
Measured TGI values are reported for all entries that follow.

// worked examples, TGI included
Cc1csc(Nc2nc(-c3cccc(Cl)c3)nc(C(Cl)(Cl)Cl)n2)n1 :: > 33.3 µM
COc1ccccc1OC/C(N=Cc1ccncc1)=N/NC(=O)c1ccncc1 :: > 100 µM

// switching to the query compound
Incoming: Returns the measured TGI for the input compound. Input: O=C(Nc1ccccc1)N1N=C(c2ccccc2)C1c1ccccc1 (stereo not drawn)
Outgoing: > 100 µM

---

Measured GI50 values are reported for all entries that follow.
test system: SNB-75 CNS; test: NCI tumour cell line growth inhibition, 48 h

Incoming: Returns the measured GI50 for the input compound. Input: "CCOc1cccnc1/C=N/NC(N)=S"
Outgoing: 3.84 µM

Incoming: Returns the measured GI50 for the input compound. Input: "CN1CCN(C(=S)SCN2C(=O)c3ccccc3S2(=O)=O)CC1"
Outgoing: 24.5 µM

Incoming: Returns the measured GI50 for the input compound. Input: "CC(C)(C)c1ccc(S(=O)(=O)N[C@H]2CC[C@H]3[C@@H]4CCc5cc(O)ccc5[C@H]4CC[C@]23C)cc1"
Outgoing: 2.08 µM

Incoming: Returns the measured GI50 for the input compound. Input: "Cc1ccc(OCCCCCCNCCO)c(C)c1"
Outgoing: 6.47 µM

Incoming: Returns the measured GI50 for the input compound. Input: "OCCCCC#Cc1ccccc1C#Cc1cnccn1"
Outgoing: 17.3 µM

Incoming: Returns the measured GI50 for the input compound. Input: "CC(=O)Nc1ccc(-n2cnc3cc(-c4ccc(OCCN5CCCCC5)cc4)ccc32)cc1"
Outgoing: 4.11 µM

Incoming: Returns the measured GI50 for the input compound. Input: COC1C(CO)OC(n2c3ccccc3c3c4c(c5c6ccccc6[nH]c5c32)C(=O)NC4=O)C(O)C1OC(=O)C(N)CCCCN (stereo unspecified)
Outgoing: 3.62 µM

Incoming: Returns the measured GI50 for the input compound. Input: "O=c1[nH]c(-c2ccccn2)nc2sc3c(c12)CCCCCC3"
Outgoing: 85.1 µM

Incoming: Returns the measured GI50 for the input compound. Input: "CN(C)c1ccc(Sc2ccc3nc(N)nc(N)c3c2)cc1"
Outgoing: 2.14 µM

Incoming: Returns the measured GI50 for the input compound. Input: "O=c1[nH]c2cc(O)ccc2n2cc3c(F)cccc3c12"
Outgoing: 1.76 µM

Incoming: Returns the measured GI50 for the input compound. Input: "COc1ccc(S(=O)(=O)NCCNc2nccc(-c3c(-c4ccccc4)nc4sccn34)n2)cc1"
Outgoing: 1.82 µM

---

system: SK-MEL-5 melanoma; assay: NCI tumour cell line growth inhibition, 48 h
readout-label: log10 TGI (log10 of the value in µM)
Give log10 of TGI, with TGI taken in µM.

// worked examples, log10 TGI included
COc1cc(C2c3cc4c(cc3[C@@H](Nc3cccc(O)c3)C3COC(=O)[C@H]23)OCO4)cc(OC)c1O (stereo not given in full) :: 0.81
C/C(=N/Nc1ccc([N+](=O)[O-])cc1[N+](=O)[O-])C(CC(C(=O)Nc1ccccc1C)/C(C)=N\Nc1ccc([N+](=O)[O-])cc1[N+](=O)[O-])C(=O)Nc1ccccc1C (stereo not given) :: 1.57
CCSc1nc(N)c2cnn(C)c2n1 :: 1.59
CC(=O)Nc1ccc(-n2cnc3cc(-c4ccc(OCCN5CCCCC5)cc4)ccc32)cc1 :: 0.99
COC(=O)CCc1ccc2c(c1)CC1(C2)Cc2ccc(CCC(=O)OC)cc2C1 :: 1.76

// switching to the query molecule
Incoming: Lookup: log10 TGI / SK-MEL-5 melanoma / "CN(C)c1ccc(Sc2ccc3nc(N)nc(N)c3c2)cc1"
Outgoing: 0.68

---

test system: 786-0 renal; assay: NCI tumour cell line growth inhibition, 48 h
Measured TGI values are reported for all entries that follow.
Report only the number, with the unit µM understood.

// worked examples, TGI included
O=C(Nc1ccccc1)N1N=C(c2ccccc2)C1c1ccccc1 (stereo not given) :: 36.6
COc1ccc(-n2nc(C)c3c2N(C)C2(C)C[C@@H]4C3(C)[C@@H]3CC4(C2)N(C)c2c(c(C)nn2-c2ccc(OC)cc2)[C@H]3C)cc1 (stereo not given in full) :: 29.6

Incoming: Returns the measured TGI for the input molecule. Input: "O=C1/C(=C/c2ccccc2)CN(C(=O)Oc2ccc([N+](=O)[O-])cc2)C/C1=C\c1ccccc1"
Outgoing: 3.55

Incoming: Returns the measured TGI for the input molecule. Input: "Cn1cc(-c2nn3cc(-c4cccs4)nc3s2)c2cc(F)ccc21"
Outgoing: 52.3

Incoming: Returns the measured TGI for the input molecule. Input: CN1C(=O)C23CC4=CC=CC(O)C4N2C(=O)C1(CO)SS3 (stereo not given)
Outgoing: 0.222

---

test system: UACC-257 melanoma; assay: NCI tumour cell line growth inhibition, 48 h
Measured GI50 values are reported for all entries that follow.

// worked examples, GI50 included
CC1SC2(CCCCC2)N(NC(=O)c2[nH]c3ccc(F)cc3c2-c2ccccc2)C1=O (stereo not given) :: 90.9 µM
COc1ncnc2c(-c3ccco3)cn(COCc3ccccc3)c12 :: > 50 µM
O=c1[nH]c(-c2ccccn2)nc2sc3c(c12)CCCCCC3 :: > 100 µM

Incoming: Returns the measured GI50 for the input compound. Input: "Cn1cc(-c2nn3cc(-c4cccs4)nc3s2)c2cc(F)ccc21"
Outgoing: 7.9 µM

Incoming: Returns the measured GI50 for the input compound. Input: CCOC(=O)C1=C(c2ccccc2)N(Cc2ccccc2)C2(O)C=CC(=O)C3C(=O)N(c4ccccc4)C(=O)C132 (stereo not given)
Outgoing: 2.82 µM

---

system: A498 renal; assay: NCI tumour cell line growth inhibition, 48 h
Measured GI50 values are reported for all entries that follow.

COc1cc(C2c3cc4c(cc3[C@@H](Nc3cccc(O)c3)C3COC(=O)[C@H]23)OCO4)cc(OC)c1O (stereo partly drawn) :: 860 nM

Incoming: Lookup: GI50 / A498 renal / "O=c1[nH]c(-c2ccccn2)nc2sc3c(c12)CCCCCC3"
Outgoing: 1310 nM

Incoming: Lookup: GI50 / A498 renal / "COc1cc(C(=O)/C=C/c2c(C(F)(F)F)nc3sccn23)cc(OC)c1OC"
Outgoing: 1890 nM

---

tested on: NCI-H23 lung; experiment: NCI tumour cell line growth inhibition, 48 h
readout-label: TGI (µM)
Report only the number, with the unit µM understood.

CN(C)CCn1c(=O)c2ccc(NCCNCCO)c3c(=O)c4cc(O)ccc4n(c1=O)c23 :: 3.64

// switching to the query compound
Incoming: Returns the measured TGI for the input compound. Input: "CN(C)CCNc1nc2ccccc2c2c1C(=O)c1ccccc1-2"
Outgoing: 1.82
